- measured_on: Prostaglandin E2 receptor EP2 subtype (Homo sapiens, UniProt P43116)
- Sequence (P43116 whole entry): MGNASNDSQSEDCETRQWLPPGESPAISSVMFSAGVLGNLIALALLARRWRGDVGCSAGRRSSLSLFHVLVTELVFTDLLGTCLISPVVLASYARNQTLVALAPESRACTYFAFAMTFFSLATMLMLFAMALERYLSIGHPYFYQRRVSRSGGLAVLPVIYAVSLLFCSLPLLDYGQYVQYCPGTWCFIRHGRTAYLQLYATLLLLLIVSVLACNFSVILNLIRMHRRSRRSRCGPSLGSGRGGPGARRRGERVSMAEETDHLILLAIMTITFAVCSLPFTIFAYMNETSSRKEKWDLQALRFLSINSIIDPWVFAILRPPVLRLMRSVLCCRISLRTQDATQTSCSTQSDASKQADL
- test_protocol: Binding Assay: Measurement of EP2 receptor binding action was performed in accordance with the method of Abramovitz et al. (Biochimica et Biophysica Acta, 1483, 285 (2000)). A test compound dissolved in dimethyl sulfoxide (final concentration: 1.0 (V/V) %) and [3H]prostaglandin E2 (NET-428, manufactured by PerkinElmer) (final concentration: 10 nM) were added to a buffer solution (10 mM MES-KOH (pH 6.0), 10 mM MgCl2, 1 mM EDTA) in which 10 μg of a membrane fraction of HEK293 cells expressing human EP2 receptor (ES-562-M, manufactured by Euroscreen) was suspended, and then incubated at 30° C. for 60 minutes. The membrane fraction was recovered on glass fiber filter paper (GF/B, manufactured by Whatman) using a cell harvester (M30R, manufactured by Brandel), and after washing with a buffer solution (10 mM MES-KOH (pH 6.0), 10 mM MgCl2), radioactivity was measured with a liquid scintillation analyzer (2000CA, manufactured by Packard).
outcome_measure: pKi
Note on units: pKi is unitless, being -log10 of a concentration expressed in mol/L.

CCOc1ccccc1-c1ccc(CN(Cc2cccc(NCC(=O)O)n2)S(=O)(=O)c2ccccn2)cc1 :: 8.59
Cc1cccc(-c2ccc(CN(Cc3cccc(NCC(=O)O)n3)S(=O)(=O)c3ccccn3)cc2)c1 :: 8.66
CCc1cccc(-c2ccc(CN(Cc3cccc(NCC(=O)O)n3)S(=O)(=O)c3ccccn3)cc2)c1 :: 8.85

IN: Recorded pKi for `CC#Cc1ccc(-c2ccc(CN(Cc3cccc(NCC(=O)O)n3)S(=O)(=O)c3ccccn3)cc2)cc1` with Prostaglandin E2 receptor EP2 subtype (Homo sapiens, UniProt P43116), please?
OUT: 8.17

IN: Recorded pKi for `CC#Cc1ccccc1-c1ccc(CN(Cc2cccc(NCC(=O)O)n2)S(=O)(=O)c2ccccn2)cc1` with Prostaglandin E2 receptor EP2 subtype (Homo sapiens, UniProt P43116), please?
OUT: 9.12

IN: Recorded pKi for `CCCc1cccc(-c2ccc(CN(Cc3cccc(NCC(=O)O)n3)S(=O)(=O)c3ccccn3)cc2)c1` with Prostaglandin E2 receptor EP2 subtype (Homo sapiens, UniProt P43116), please?
OUT: 8.96

IN: Recorded pKi for `C=CCc1cccc(-c2ccc(CN(Cc3cccc(NCC(=O)O)n3)S(=O)(=O)c3ccccn3)cc2)c1` with Prostaglandin E2 receptor EP2 subtype (Homo sapiens, UniProt P43116), please?
OUT: 8.77

IN: Recorded pKi for `CC#Cc1cccc(-c2ccc(CN(Cc3cccc(NCC(=O)O)n3)S(=O)(=O)c3cccc(F)c3)cc2)c1` with Prostaglandin E2 receptor EP2 subtype (Homo sapiens, UniProt P43116), please?
OUT: 8.85

IN: Recorded pKi for `COc1cccc(-c2ccc(CN(Cc3cccc(NCC(=O)O)n3)S(=O)(=O)c3ccccn3)cc2)c1` with Prostaglandin E2 receptor EP2 subtype (Homo sapiens, UniProt P43116), please?
OUT: 8.92

----------
- measured_on: Prostaglandin E2 receptor EP2 subtype (Homo sapiens)
- test_protocol: Binding Assay: Measurement of EP2 receptor binding action was performed in accordance with the method of Abramovitz et al. (Biochimica et Biophysica Acta, 1483, 285 (2000)). A test compound dissolved in dimethyl sulfoxide (final concentration: 1.0 (V/V) %) and [3H]prostaglandin E2 (NET-428, manufactured by PerkinElmer) (final concentration: 10 nM) were added to a buffer solution (10 mM MES-KOH (pH 6.0), 10 mM MgCl2, 1 mM EDTA) in which 10 μg of a membrane fraction of HEK293 cells expressing human EP2 receptor (ES-562-M, manufactured by Euroscreen) was suspended, and then incubated at 30° C. for 60 minutes. The membrane fraction was recovered on glass fiber filter paper (GF/B, manufactured by Whatman) using a cell harvester (M30R, manufactured by Brandel), and after washing with a buffer solution (10 mM MES-KOH (pH 6.0), 10 mM MgCl2), radioactivity was measured with a liquid scintillation analyzer (2000CA, manufactured by Packard).
pKi: −log10 of the molar value.
outcome_measure: pKi

O=C(O)CNc1cccc(CN(Cc2ccc(-c3ccc(Cl)cc3)cc2)S(=O)(=O)c2cccnc2)n1 :: < 8.00
CCOc1ccc(-c2ccc(CN(Cc3cccc(NCC(=O)O)n3)S(=O)(=O)c3ccccn3)cc2)cc1 :: < 8.00

From here, focus on the item given below.
IN: Returns the measured pKi for the input compound. Input: `Cc1cnc(-c2ccc(CN(Cc3cccc(NCC(=O)O)n3)S(=O)(=O)c3ccccn3)cc2)s1`
OUT: < 8.00
